Biological target: Ros1 enzyme (Homo sapiens)
Construct: 0.5 μg/ml Ros1 enzyme
Sequence (P08922 28-2347): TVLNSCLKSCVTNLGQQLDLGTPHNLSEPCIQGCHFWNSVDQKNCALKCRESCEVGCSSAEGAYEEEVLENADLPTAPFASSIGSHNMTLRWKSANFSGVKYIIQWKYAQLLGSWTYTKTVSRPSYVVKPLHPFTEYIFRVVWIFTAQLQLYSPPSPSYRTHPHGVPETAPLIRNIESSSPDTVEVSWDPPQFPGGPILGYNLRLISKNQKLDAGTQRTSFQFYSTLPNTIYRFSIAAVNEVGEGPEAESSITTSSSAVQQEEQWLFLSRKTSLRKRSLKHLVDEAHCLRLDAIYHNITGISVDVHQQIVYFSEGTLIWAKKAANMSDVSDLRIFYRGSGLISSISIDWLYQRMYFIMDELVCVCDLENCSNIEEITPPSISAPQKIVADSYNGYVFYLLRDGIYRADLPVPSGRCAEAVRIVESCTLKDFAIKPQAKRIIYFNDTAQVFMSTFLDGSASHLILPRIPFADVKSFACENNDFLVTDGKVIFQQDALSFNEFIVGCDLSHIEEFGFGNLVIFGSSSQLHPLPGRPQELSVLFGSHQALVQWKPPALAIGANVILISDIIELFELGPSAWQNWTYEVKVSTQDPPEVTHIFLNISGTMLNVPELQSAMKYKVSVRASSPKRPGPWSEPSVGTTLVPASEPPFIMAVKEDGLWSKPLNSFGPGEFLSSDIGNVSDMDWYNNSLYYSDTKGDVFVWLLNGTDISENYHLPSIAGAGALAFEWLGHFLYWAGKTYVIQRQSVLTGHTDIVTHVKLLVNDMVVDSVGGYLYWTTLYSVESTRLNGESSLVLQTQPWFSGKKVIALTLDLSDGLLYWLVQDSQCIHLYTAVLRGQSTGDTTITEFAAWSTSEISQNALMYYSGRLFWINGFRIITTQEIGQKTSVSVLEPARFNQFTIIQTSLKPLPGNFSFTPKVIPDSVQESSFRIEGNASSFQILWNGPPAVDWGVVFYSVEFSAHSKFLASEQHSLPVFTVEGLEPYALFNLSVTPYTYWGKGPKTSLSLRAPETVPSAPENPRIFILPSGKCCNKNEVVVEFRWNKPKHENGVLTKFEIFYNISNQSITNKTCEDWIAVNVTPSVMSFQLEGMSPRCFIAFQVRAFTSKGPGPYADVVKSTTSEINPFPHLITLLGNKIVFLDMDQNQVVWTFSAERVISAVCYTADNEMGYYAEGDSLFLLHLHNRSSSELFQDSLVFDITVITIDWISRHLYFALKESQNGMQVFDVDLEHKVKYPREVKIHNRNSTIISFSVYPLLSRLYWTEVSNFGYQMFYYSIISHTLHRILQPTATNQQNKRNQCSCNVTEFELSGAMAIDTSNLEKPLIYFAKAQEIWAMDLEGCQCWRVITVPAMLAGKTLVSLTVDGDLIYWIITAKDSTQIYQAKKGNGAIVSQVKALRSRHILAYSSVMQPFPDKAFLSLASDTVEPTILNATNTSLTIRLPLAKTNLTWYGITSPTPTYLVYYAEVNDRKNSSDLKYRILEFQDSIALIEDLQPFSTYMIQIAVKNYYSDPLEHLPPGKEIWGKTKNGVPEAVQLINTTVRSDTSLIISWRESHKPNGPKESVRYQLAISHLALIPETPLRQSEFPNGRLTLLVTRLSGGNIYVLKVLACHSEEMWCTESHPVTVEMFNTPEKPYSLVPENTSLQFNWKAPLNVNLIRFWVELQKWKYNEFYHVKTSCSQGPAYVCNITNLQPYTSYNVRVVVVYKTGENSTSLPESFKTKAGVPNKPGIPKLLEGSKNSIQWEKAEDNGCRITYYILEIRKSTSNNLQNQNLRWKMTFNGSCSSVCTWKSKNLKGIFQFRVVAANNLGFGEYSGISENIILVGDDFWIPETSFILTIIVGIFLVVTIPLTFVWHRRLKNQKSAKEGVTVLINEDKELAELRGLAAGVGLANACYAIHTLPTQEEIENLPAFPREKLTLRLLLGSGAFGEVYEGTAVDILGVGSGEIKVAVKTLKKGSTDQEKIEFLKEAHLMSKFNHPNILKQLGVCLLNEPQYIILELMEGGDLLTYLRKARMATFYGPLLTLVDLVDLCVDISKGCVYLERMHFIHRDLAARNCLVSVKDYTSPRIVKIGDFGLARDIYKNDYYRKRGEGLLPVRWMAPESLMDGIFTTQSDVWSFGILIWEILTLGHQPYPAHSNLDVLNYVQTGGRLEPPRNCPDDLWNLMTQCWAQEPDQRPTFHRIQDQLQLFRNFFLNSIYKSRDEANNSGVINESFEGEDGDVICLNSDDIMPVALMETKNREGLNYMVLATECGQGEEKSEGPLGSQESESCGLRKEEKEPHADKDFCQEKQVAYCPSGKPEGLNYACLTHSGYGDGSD
Assay: Ros1 enzymatic assay
Type: biochemical
Settings: Ros1 enzymatic assay; read-out: ROS1 pIC50 (converted)
Experimental: Compounds were spotted onto white 384-well Proxiplate plus plates (Perkin Elmer) to which 5 μl of enzyme mix (0.5 μg/ml Ros1 enzyme, 50 mM Tris-HCl pH7.5, 1 mM EGTA, 10 mM MgCl2, 0.01% Tween-20) and 5 μl of substrate mix (6 μg/ml IRS-Tide [American Peptide Company], 20 μM ATP, 13.33 μCi/ml ATP (adenosine 5′-triphosphate) P^33, 50 mM Tris-HCl pH7.5, 1 mM EGTA (ethylene glycol-bis(2-aminoethylether)-N,N,N′,N′-tetraacetic acid), 10 mM MgCl2, 0.01% Tween-20) were added. […]
Assay metric: IC50 (µM)
Unit µM implied. Number only.

The following molecules have reported results that may help.
Molecule	Val
CC(C)c1ccc(COc2ccc(-c3c(-c4ccncc4)nn4c3C(=O)NCC4)nc2)cc1	0.316
CC(C)c1ccc(C2CNc3cc(-c4c(-c5ccncc5)nn5c4C(=O)NCC5)ccc3O2)cc1 (racemic) [Compound 226]	0.631
CC(C)OCC(O)CN1CCn2nc(-c3ccncc3)c(-c3ccc(OCc4ccc(C(C)C)cc4)cc3)c2C1=O (stereo not shown)	0.158

// next entry
Summary for this molecule, `COc1cc(-c2c(-c3ccncc3)nn3c2C(=O)NCC3)ncc1OCc1ccc(C(C)C)cc1` : IC50 is 0.0631

---

biological target: Ba/F3 cells containing Ros1 with a mutation at the gatekeeper residue (L2026M) (Homo sapiens, UniProt P08922, L2026M, cells depend on it, form not given); experiment: Ba/F3-Ros1 cell proliferation assay, L2026M gatekeeper mutant; format: cell-based, murine; details: without IL-3
Sequence (P08922 whole entry L2026M, form open): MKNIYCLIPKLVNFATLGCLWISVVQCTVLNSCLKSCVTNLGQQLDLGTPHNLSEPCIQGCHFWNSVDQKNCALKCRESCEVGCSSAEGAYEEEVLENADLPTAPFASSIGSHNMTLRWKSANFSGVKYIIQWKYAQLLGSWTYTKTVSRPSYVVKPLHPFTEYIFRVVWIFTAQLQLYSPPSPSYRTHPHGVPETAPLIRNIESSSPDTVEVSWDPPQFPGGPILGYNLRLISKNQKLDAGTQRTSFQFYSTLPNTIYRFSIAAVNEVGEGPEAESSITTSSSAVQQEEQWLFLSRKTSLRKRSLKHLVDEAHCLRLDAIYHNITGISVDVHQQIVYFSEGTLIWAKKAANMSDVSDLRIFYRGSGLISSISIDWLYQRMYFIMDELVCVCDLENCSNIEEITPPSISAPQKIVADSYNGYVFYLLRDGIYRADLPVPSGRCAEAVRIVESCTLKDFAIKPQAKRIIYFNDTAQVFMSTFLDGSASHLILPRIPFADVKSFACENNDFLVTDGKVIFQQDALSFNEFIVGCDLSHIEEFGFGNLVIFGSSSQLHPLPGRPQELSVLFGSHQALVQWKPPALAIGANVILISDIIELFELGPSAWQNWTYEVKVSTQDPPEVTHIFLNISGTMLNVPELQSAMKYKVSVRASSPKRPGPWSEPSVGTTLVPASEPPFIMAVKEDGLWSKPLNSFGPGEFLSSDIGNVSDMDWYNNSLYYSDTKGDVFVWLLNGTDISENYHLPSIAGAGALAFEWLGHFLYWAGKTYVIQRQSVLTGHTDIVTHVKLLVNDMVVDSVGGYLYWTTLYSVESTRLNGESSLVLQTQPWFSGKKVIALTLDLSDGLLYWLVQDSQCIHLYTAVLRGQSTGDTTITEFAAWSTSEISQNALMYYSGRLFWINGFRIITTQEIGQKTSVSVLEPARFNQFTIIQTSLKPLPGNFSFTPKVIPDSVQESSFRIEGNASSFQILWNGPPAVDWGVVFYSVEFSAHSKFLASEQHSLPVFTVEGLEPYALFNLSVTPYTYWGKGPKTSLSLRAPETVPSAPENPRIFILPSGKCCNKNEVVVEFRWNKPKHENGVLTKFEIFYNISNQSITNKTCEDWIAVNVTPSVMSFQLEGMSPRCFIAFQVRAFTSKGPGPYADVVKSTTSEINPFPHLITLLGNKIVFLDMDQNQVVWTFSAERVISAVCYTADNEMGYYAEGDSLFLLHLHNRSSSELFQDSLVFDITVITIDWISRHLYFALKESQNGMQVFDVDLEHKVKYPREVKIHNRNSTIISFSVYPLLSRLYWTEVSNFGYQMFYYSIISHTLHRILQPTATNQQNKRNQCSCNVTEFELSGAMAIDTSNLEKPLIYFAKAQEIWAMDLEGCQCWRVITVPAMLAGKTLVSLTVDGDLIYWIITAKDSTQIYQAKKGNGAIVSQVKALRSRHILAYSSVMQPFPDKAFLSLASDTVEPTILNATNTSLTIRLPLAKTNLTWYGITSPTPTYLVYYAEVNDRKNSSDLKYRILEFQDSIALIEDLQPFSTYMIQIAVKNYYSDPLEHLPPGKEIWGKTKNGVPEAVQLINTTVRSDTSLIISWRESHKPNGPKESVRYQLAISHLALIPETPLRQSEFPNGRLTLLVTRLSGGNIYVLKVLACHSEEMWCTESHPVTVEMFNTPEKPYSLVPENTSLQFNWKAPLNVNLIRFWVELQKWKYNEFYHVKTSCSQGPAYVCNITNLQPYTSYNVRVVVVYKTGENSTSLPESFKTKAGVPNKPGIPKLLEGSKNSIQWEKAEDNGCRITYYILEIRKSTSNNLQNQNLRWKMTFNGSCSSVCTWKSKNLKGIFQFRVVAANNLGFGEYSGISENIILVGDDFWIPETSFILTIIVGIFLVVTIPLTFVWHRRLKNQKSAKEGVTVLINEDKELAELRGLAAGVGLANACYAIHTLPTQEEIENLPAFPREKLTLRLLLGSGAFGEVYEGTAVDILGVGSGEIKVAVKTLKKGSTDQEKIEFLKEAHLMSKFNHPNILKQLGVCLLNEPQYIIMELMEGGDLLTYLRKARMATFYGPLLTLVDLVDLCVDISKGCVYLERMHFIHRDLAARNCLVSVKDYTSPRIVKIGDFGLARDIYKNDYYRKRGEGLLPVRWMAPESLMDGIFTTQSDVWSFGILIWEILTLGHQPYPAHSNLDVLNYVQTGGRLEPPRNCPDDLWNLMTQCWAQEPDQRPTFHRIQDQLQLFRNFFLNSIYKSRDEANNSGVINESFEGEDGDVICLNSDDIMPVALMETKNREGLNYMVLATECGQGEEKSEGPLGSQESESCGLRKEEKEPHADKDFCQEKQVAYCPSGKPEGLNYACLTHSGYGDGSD
Parameter: Ba/F3 Ros1 L2026M (-IL-3) pIC50. Scope: all listed entries.

CC(C)c1ccc(COc2ccc(-c3c(-c4ccncn4)nn4c3C(=O)N(C(C)C)CC4)cc2)cc1 7.3
CC(C)c1ccc(COc2ccc(-c3c(-c4ccncc4)nn4c3C(=O)N(CCNCC(F)(F)F)CC4)cc2)cc1 6.6
CC(C)c1ccc(COc2cc(F)c(-c3c(-c4ccncc4)nn4c3C(=O)NCC4)cc2F)cc1 8.2

// next entry
Summary for this molecule, `CC(C)c1ccc(COc2ccc(-c3c(-c4ccncc4)nn4c3C(=O)NCC4)cn2)cc1` : Ba/F3 Ros1 L2026M (-IL-3) pIC50 is 7.6

---

biological target: Ba/F3 cells containing Ros1 wild-type protein (Homo sapiens, UniProt P08922, cells depend on it, form not given); construct: The background only speaks of 'a number of different unrelated proteins' and names SLC34A2-ROS1 for HCC78 cells; test: Ba/F3-Ros1 cell proliferation assay, wild-type Ros1; type: cell-based, murine; conditions: without IL-3
Sequence (P08922 whole entry, stated change not applied): as the sequence (P08922 whole entry L2026M, form open) above, with M2026L counted along it
Parameter: BaF3-ROS1-IL3 pIC50. Scope: all listed entries.

Summary for this compound, CC(C)c1ccc(COc2ccc(-c3c(-c4ccncc4)nn4c3C(=O)NCC4)c(F)c2)cc1CCO [Compound 204] : BaF3-ROS1-IL3 pIC50 is 7.9

Summary for this compound, CC(C)c1ccc(C2CNc3cc(-c4c(-c5ccncc5)nn5c4C(=O)NCC5)ccc3O2)cc1 (stereo not drawn) [Compound 225] : BaF3-ROS1-IL3 pIC50 is 6.7

Summary for this compound, COCC(C)(C)c1ccc(COc2ccc(-c3c(-c4ccncc4)nn4c3C(=O)NCC4)cc2)cc1 [Compound 126] : BaF3-ROS1-IL3 pIC50 is 6.9

Summary for this compound, CC(C)c1ccc(COc2cc(F)c(-c3c(-c4ccncc4)nn4c3C(=O)N(CCO)CC4)cc2F)cc1 [Compound 203] : BaF3-ROS1-IL3 pIC50 is 8.2

Summary for this compound, CC(C)c1cc(F)c(COc2ccc(-c3c(-c4ccncc4)nn4c3C(=O)N(CCO)CC4)cc2)cc1F [Compound 97] : BaF3-ROS1-IL3 pIC50 is 6.9

Summary for this compound, CC(O)CN1CCn2nc(-c3ccncc3)c(-c3ccc(OCc4ccc(C(C)C)cc4)cc3)c2C1=O (stereo not drawn) [Compound 46] : BaF3-ROS1-IL3 pIC50 is 7.5

Summary for this compound, CC(C)c1ccc(COc2ccc(-c3c(-c4ccncc4)nn4c3C(=O)N(C(C)CO)CC4)cc2)cc1 (single isomer, unassigned) [Compound 39] : BaF3-ROS1-IL3 pIC50 is 7.3

Summary for this compound, Cc1cc(C(C)C)ccc1COc1ccc(-c2c(-c3ccncc3)nn3c2C(=O)NCC3)cc1 [Compound 78] : BaF3-ROS1-IL3 pIC50 is 7.1

Summary for this compound, CC(C)c1ccc(COc2ccc(-c3c(-c4ccncc4)nn4c3C(=O)NCC4)cn2)cc1 [Compound 71] : BaF3-ROS1-IL3 pIC50 is 7.7

Summary for this compound, CC(C)c1ccc(COc2ccc(-c3c(-c4ccncc4)nn4c3CN(CCO)CC4)c(F)c2)cc1 [Compound 187] : BaF3-ROS1-IL3 pIC50 is 7.2
